System: Wolbachia pipientis
assay: Anti-Wolbachia Cell-Based Screen
Assay type: functional
Parameters: scale not given: in the data most compounds retested in dose-response had high values
testConditions: 5 µM
In all, about 48,000 compounds went through this assay and about 13,000 (27%) showed an effect of 50% or more. This is one part of the list.
metricName: Percent Effect (%)
Answers are plain numbers, in %.

The following molecules each have a reported value; give each one's Percent Effect.
1. COc1ccc(-c2csc(-c3cccc(C(=O)O)c3)n2)cc1OC
2. COc1ccc(-c2noc(C3=NN(C)C(=O)CC3)n2)cc1OC
3. CN(Cc1ccc(-n2cccn2)cc1)c1nc(N)nc2c1CCNCC2

[reply]
[-12.11, -3.216, 3.985]

The following molecules each have a reported value; give each one's Percent Effect.
1. O=C(C1CCCc2[nH]ncc21)N1CCCC2(C1)OCCO2 (stereo not drawn)
2. Cc1nc(CN2CCC3(CC2)CC(=O)N(C)c2ccccc23)cs1.O=C(O)C(F)(F)F
3. Cn1ccnc1C1CCCN(C(=O)c2ccc3nccnc3c2)C1 (stereo not drawn)
4. Cc1nc(Cn2c3c(ccc2=O)CCN(CC2CCC2)CC3)cs1.O=C(O)C(F)(F)F.O=C(O)C(F)(F)F
5. Cc1nc(CN2CCC3(CC2)CCN(C(=O)c2cscn2)C3)cs1.O=C(O)C(F)(F)F

[reply]
[23.68, -15.31, 95.06, -14.62, -22.9]

The following molecules each have a reported value; give each one's Percent Effect.
1. CCOc1ccc(C(=O)N2C[C@H]3CC[C@@H]2CN(C)C3)cc1OCC
2. CCCSc1ncc(C2CC(=O)NCc3nc4ccccn4c32)cn1 (stereo not drawn)

[reply]
-32.38
2.221

The following molecules each have a reported value; give each one's Percent Effect.
1. CCOc1ccccc1C(=O)N1CCCC(c2nccn2CCOC)C1 (stereo not drawn)
2. CC(=O)c1cc(CC(=O)NCc2ccc(CN(C)C)cc2)cs1
3. Cc1nc(CN2CCN(C)C(=O)C23CCN(CC2CCCC2)CC3)cs1
4. COc1ccc(-c2cc(C[C@@H]3C[C@H](N(C)C)C3(C)C)no2)cc1
5. Cc1ccc(CCN[C@@H]2c3ccccc3C3(CCNCC3)[C@H]2O)s1
6. CCOc1ccc(C(=O)N2CCCC(c3nccn3C)C2)cc1OCC (stereo not drawn)
7. CNC(=O)C1(N2CCC[C@H]2C(=O)NC2CCCCC2)CCOCC1.Cl

[reply]
[-0.2171, -9.398, 121.4, 1.876, -1.865, 100.4, -2.575]
